- EXPERIMENT DESCRIPTION: Antioxidant activity assessed as DPPH scavenging activity after 30 min by spectrophotometry
- Format: functional
MEASURED QUANTITY: IC50

COc1cc(/C=C2\CCC/C(=C\c3ccc(OC(C)=O)c(OC)c3)C2=O)ccc1OC(C)=O	≥ 100 µM

Take each entry in turn and give its IC50.
1. CC(=O)Oc1ccc(/C=C2\CCC/C(=C\c3ccc(OC(C)=O)c(OC(C)=O)c3)C2=O)cc1OC(C)=O
2. O=C1/C(=C/c2ccc(O)cc2)CC/C1=C\c1ccc(O)cc1
3. O=C1/C(=C/c2ccc([N+](=O)[O-])cc2)CCC/C1=C\c1ccc([N+](=O)[O-])cc1
4. O=C1/C(=C/c2ccc(O)c(O)c2)CCC/C1=C\c1ccc(O)c(O)c1
5. O=C1/C(=C/c2ccc(F)cc2)CC/C1=C\c1ccc(F)cc1

Resp:
1: ≥ 100 µM; 2: ≥ 100 µM; 3: ≥ 100 µM; 4: 13.3 µM; 5: ≥ 100 µM

For each of the molecules below, state IC50.
1. O=C1/C(=C/c2ccc(O)cc2)CCC/C1=C\c1ccc(O)cc1
2. CCC(=O)Oc1ccc(/C=C2\CCC/C(=C\c3ccc(OC(=O)CC)c(OC)c3)C2=O)cc1OC
3. COc1ccc(/C=C2\CCC/C(=C\c3ccc(OC)c(OC)c3)C2=O)cc1OC
4. COc1cc(/C=C2\CC/C(=C\c3ccc(O)c(OC)c3)C2=O)ccc1O
5. O=C1/C(=C/c2ccc(F)cc2)CCC/C1=C\c1ccc(F)cc1
6. COc1cc(/C=C2\CC/C(=C\c3ccc(OC(C)=O)c(OC)c3)C2=O)ccc1OC(C)=O

Resp:
1. ≥ 100 µM
2. ≥ 100 µM
3. ≥ 100 µM
4. 75 µM
5. ≥ 100 µM
6. ≥ 100 µM

---

- EXPERIMENT DESCRIPTION: Antioxidant activity assessed as DPPH scavenging activity after 30 min by spectrophotometry
- Assay type: functional
MEASURED QUANTITY: pIC50
One number for each entry, as −log10 of the molar value.

O=C1/C(=C/c2ccc(O)cc2O)CC/C1=C\c1ccc(O)cc1O	4.30
O=C1/C(=C/c2ccc(O)c(O)c2)CC/C1=C\c1ccc(O)c(O)c1	4.83
O=C1/C(=C/c2cccc(O)c2O)CC/C1=C\c1cccc(O)c1O	4.68
O=c1c(O)c(-c2ccc(O)c(O)c2)oc2cc(O)cc(O)c12	4.67

Req: Find the recorded pIC50 belonging to COc1cc(/C=C2\CCC/C(=C\c3ccc(O)c(OC)c3)C2=O)ccc1O and report it.
Resp: 4.29

---

- EXPERIMENT DESCRIPTION: Antioxidant activity assessed as DPPH scavenging activity after 30 min by spectrophotometry
- Format: functional
MEASURED QUANTITY: IC50

Examples with answers:
O=C1/C(=C/c2cccc(O)c2)CC/C1=C\c1cccc(O)c1	≥ 100 µM
O=C1/C(=C/c2cccc(O)c2)CCC/C1=C\c1cccc(O)c1	≥ 100 µM

Req: Find the recorded IC50 belonging to CC(=O)Oc1ccc(/C=C2\CC/C(=C\c3ccc(OC(C)=O)c(OC(C)=O)c3)C2=O)cc1OC(C)=O and report it.
Resp: ≥ 100 µM

Every entry's value here was drawn from ChEMBL document CHEMBL3046653.
